Reference source for all entries: the supplement of paper PMC10567573

Each record here notes measured protein stability index.
B1: LOXL2 (parent)
chain: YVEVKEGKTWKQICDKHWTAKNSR

Variants of: B1
test-method-notes: protein stability index of a GFP-peptide fusion (GPS, HEK-293T) (PSI 1-6); higher = more stable;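 also: lentivirally expressed fusions sorted by FACS into six bins by GFP to DsRed ratio, PSI derived from sequencing read proportions per bin multiplied by bin number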
experimental-parameters: c terminus: a fixed tail appended
Give the figure by itself; no unit, no explanation.

[
  {
    "mutation-name": "E6C",
    "protein stability index": 3.35
  },
  {
    "mutation-name": "Y1P",
    "protein stability index": 3.68
  },
  {
    "mutation-name": "H17E",
    "protein stability index": 2.3
  }
]

// query Look up protein stability index: `V4Y`
// result 1.14

// query Look up protein stability index: `D15M`
// result 2.05

// query Look up protein stability index: `H17A`
// result 3

// query Look up protein stability index: `E3H`
// result 2.92

// query Look up protein stability index: `S23Y`
// result 2.64

// query Look up protein stability index: `V4P`
// result 1.26

// query Look up protein stability index: `T9L`
// result 2.52

// query Look up protein stability index: `W18N`
// result 2.58
